Below are AC50 values recorded for 5-hydroxytryptamine receptor 2B (Homo sapiens).

# AC50 (compound: CC(CCc1ccc(O)cc1)NCCc1ccc(O)c(O)c1 (centres undefined) ) is > 10 µM

# AC50 (compound: OC1(c2ccc(Cl)cc2)c2ccccc2C2=NCCN21 (centres undefined) ) is > 10 µM

# AC50 (compound: "CN(C)CCCNc1c2ccccc2nc2cccc([N+](=O)[O-])c12" ) is 0.2 µM

# AC50 (compound: "CCCC(CCC)C(=O)O" ) is > 10 µM

# AC50 (compound: "Cc1cc(C(C)(C)C)cc(C)c1CC1=NCCN1" ) is 1.56 µM

# AC50 (compound: COc1ccccc1OCCNCC(O)COc1cccc2[nH]c3ccccc3c12 (centres undefined) ) is 0.0101 µM

# AC50 (compound: CC(N)C(O)c1ccccc1 (centres undefined) ) is > 10 µM

# AC50 (compound: "Cc1onc(-c2ccccc2)c1-c1ccc(S(N)(=O)=O)cc1" ) is > 10 µM

# AC50 (compound: CCC(=O)O[C@]1(C(=O)SCF)[C@H](C)C[C@H]2[C@@H]3C[C@H](F)C4=CC(=O)C=C[C@]4(C)[C@@]3(F)[C@@H](O)C[C@@]21C [FLUTICASONE PROPIONATE] ) is > 10 µM

---

test target: Thromboxane A2 receptor (Homo sapiens, UniProt P21731); note: assay procedure not described here
Sequence (P21731 whole entry): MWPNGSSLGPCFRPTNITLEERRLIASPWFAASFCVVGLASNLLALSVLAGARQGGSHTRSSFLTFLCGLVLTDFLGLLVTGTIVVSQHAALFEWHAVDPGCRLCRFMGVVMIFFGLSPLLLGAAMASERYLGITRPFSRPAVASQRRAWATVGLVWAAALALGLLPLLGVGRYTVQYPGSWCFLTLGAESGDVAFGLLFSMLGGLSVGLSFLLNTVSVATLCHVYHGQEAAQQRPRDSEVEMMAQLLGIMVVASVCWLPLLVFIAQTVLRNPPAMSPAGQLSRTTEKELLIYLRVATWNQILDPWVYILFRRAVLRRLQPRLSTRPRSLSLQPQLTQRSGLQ
Assay type: functional, cell-based
Task for the reader: assign each of the following molecules its reported AC50.

# AC50 (molecule: CC(=O)O[C@]1(C(C)=O)CC[C@H]2[C@@H]3C=C(C)C4=CC(=O)CC[C@@H]4[C@H]3CC[C@@]21C [NOMEGESTROL ACETATE] ) is > 30 µM

# AC50 (molecule: "CC[C@@H]([C@H](C)O)n1ncn(-c2ccc(N3CCN(c4ccc(OC[C@@H]5CO[C@@](Cn6cncn6)(c6ccc(F)cc6F)C5)cc4)CC3)cc2)c1=O" ) is > 30 µM

# AC50 (molecule: CC(=O)O[C@]1(C(C)=O)CC[C@H]2[C@@H]3C=C(Cl)C4=CC(=O)CC[C@]4(C)[C@H]3CC[C@@]21C [CHLORMADINONE ACETATE] ) is > 30 µM

# AC50 (molecule: "CCCN(CCC)C(=O)Cc1c(-c2ccc(Cl)cc2)nc2ccc(Cl)cn12" ) is > 30 µM

# AC50 (molecule: "C[C@]1(Cn2ccnn2)[C@H](C(=O)O)N2C(=O)C[C@H]2S1(=O)=O" ) is > 30 µM

# AC50 (molecule: "CCCCC[C@H](O)/C=C/[C@@H]1[C@@H](C/C=C\CCCC(=O)O)[C@@H](O)C[C@H]1O" ) is 2.76 µM

# AC50 (molecule: "CC(C)C[C@H](NC(=O)CNC(=O)c1cc(Cl)ccc1Cl)B(O)O" ) is > 30 µM

# AC50 (molecule: "CCn1cc(C(=O)O)c(=O)c2cc3c(cc21)OCO3" ) is > 30 µM

# AC50 (molecule: c1ccc2c(c1)CCc1ccccc1N2C1CN2CCC1CC2 (centres undefined) ) is > 30 µM

# AC50 (molecule: COc1cc2nc(N3CCN(C(=O)C4CCCO4)CC3)nc(N)c2cc1OC (centres undefined) ) is > 30 µM

# AC50 (molecule: Cc1ncc(COP(=O)(O)O)c(C=O)c1O [PYRIDOXAL PHOSPHATE ANHYDROUS] ) is > 30 µM

# AC50 (molecule: "C=CCN1CC[C@]23CCCC[C@H]2[C@H]1Cc1ccc(O)cc13" ) is > 30 µM

# AC50 (molecule: "OC[C@@H](O)[C@@H](O)[C@H](O)[C@@H](O)CO" ) is > 30 µM

# AC50 (molecule: "COc1ccc(CN(CCN(C)C)c2ccccn2)cc1" ) is > 30 µM

# AC50 (molecule: "Cc1cc(NC(=O)C2=C(O)c3ccccc3S(=O)(=O)N2C)no1" ) is > 30 µM

# AC50 (molecule: "C[N+](C)(C)C[C@H](O)CC(=O)[O-]" ) is > 30 µM

# AC50 (molecule: O=C(O)CCCCC1CCSS1 (centres undefined) ) is > 30 µM

# AC50 (molecule: "C[C@H](Cc1cc2c(c(C(N)=O)c1)N(CCCO)CC2)NCCOc1ccccc1OCC(F)(F)F" ) is > 30 µM

# AC50 (molecule: COc1cc2nccc(Oc3ccc(NC(=O)C4(C(=O)Nc5ccc(F)cc5)CC4)cc3)c2cc1OC [CABOZANTINIB] ) is > 30 µM

# AC50 (molecule: "CC1=C(/C=C/C(C)=C/C=C/C(C)=C/C(=O)O)C(C)(C)CCC1" ) is > 30 µM

# AC50 (molecule: "[H]/N=C(\N/C(=N/[H])Nc1ccc(Cl)cc1)NC(C)C" ) is > 30 µM

# AC50 (molecule: "CC[C@H](C)C[C@H](C)CCCCCCCCC(=O)N[C@H]1C[C@@H](O)[C@@H](NCCN)NC(=O)[C@@H]2[C@@H](O)CCN2C(=O)[C@H]([C@H](O)CCN)NC(=O)[C@H]([C@H](O)[C@@H](O)c2ccc(O)cc2)NC(=O)[C@@H]2C[C@@H](O)CN2C(=O)[C@H]([C@@H](C)O)NC1=O" ) is > 30 µM

# AC50 (molecule: "CN(C)[C@@H]1C(O)=C(C(N)=O)C(=O)[C@@]2(O)C(O)=C3C(=O)c4c(O)ccc(Cl)c4[C@@](C)(O)[C@H]3C[C@@H]12" ) is > 30 µM

# AC50 (molecule: "CN1CCC(=C2c3ccccc3Sc3ccccc32)CC1" ) is > 30 µM

# AC50 (molecule: Cc1ccccc1C(=O)Nc1ccc(C(=O)N2CCCC(N(C)C)c3ccccc32)cc1 (centres undefined) ) is > 30 µM

# AC50 (molecule: "CC(=O)Oc1cc(C(F)(F)F)ccc1C(=O)O" ) is > 30 µM

# AC50 (molecule: "C[C@H]1O[C@@H](n2cc(F)c(=O)[nH]c2=O)[C@H](O)[C@@H]1O" ) is > 30 µM

# AC50 (molecule: CN(C)CCOC(c1ccccc1)c1ccc(Br)cc1 (centres undefined) [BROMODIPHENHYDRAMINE] ) is > 30 µM

# AC50 (molecule: "CCOC(=O)N1CSC[C@H]1C(=O)O" ) is > 30 µM

# AC50 (molecule: "CC(C)(C)NC[C@H](O)COc1cccc2c1CCCC2=O" ) is > 30 µM

# AC50 (molecule: Nc1ccc(C(=O)Oc2ccccc2)c(O)c1 [PHENYL AMINOSALICYLATE] ) is > 30 µM

# AC50 (molecule: "CNC(=O)Oc1cccc2ccccc12" ) is > 30 µM

# AC50 (molecule: "N[C@@H](CO)C(=O)O" ) is > 30 µM

# AC50 (molecule: "C#C[C@]1(O)CC[C@H]2[C@@H]3CCC4=CC(=O)CC[C@@H]4[C@H]3C(=C)C[C@@]21CC" ) is > 30 µM
